Exercise: for every item that follows, state its recorded logD at 0.5 h.
- Experiment Summary: Octanol-buffer partition coefficient, log D of the compound at pH 7.4 after 30 mins by shake flask method
- Format: physicochemical

Challenge: If you can, please state the reported logD at 0.5 h value of C[C@@H](CO)OC[C@H](Oc1ncnc2c1cnn2-c1ncccc1Cl)C(=O)Nc1ccc(Cl)cn1 .
Response given: 2.4

Challenge: Record: CC(C)OC[C@H](Oc1ncnc2c1cnn2-c1ccccc1Cl)C(=O)Nc1ccc(Cl)cn1
Response given: > 4.3

Challenge: Record: O=C(Nc1ccc(F)cn1)[C@H](CN1CC(O)C1)Oc1ncnc2c1cnn2-c1c(Cl)cccc1Cl
Response given: 2.7

Challenge: Record: Cc1cnc(NC(=O)[C@H](CO[C@H](C)CO)Oc2ncnc3c2cnn3-c2c(Cl)cccc2C#N)cn1
Response given: 1.9

Challenge: Record: O=C(Nc1ccc(F)cn1)[C@H](CN1CC(O)C1)Oc1ncnc2c1cnn2-c1c(F)cccc1Cl
Response given: 2.3

Challenge: Record: O=C(Nc1ccc(F)cn1)[C@H](COCCO)Oc1ncnc2c1cnn2-c1ccccc1Cl
Response given: 2.4

Challenge: Record: O=C(Nc1ccc(Cl)cn1)[C@H](CN1CC(O)C1)Oc1ncnc2c1cnn2-c1ccccc1Cl
Response given: 3.1

Challenge: Record: Cc1ccc(NC(=O)[C@H](CCO)Oc2ncnc3c2cnn3-c2ncccc2Cl)nc1
Response given: 1.8

Challenge: Record: O=C(Nc1ccccn1)[C@H](CN1CC(O)C1)Oc1ncnc2c1cnn2-c1ccccc1Cl
Response given: 2

Challenge: Record: O=C(Nc1ccc(F)cn1)[C@H](CN1CC(O)C1)Oc1ncnc2c1cnn2-c1ncccc1Cl
Response given: 1.3

###

- Experiment Summary: Half life in rat plasma
- Assay type: ADME, cell-free
Measurement Type: half-life (min)
Please state the figure in min; there is no need to write the unit.

Challenge: If you can, please state the reported half-life value of CCOC[C@H](Oc1ncnc2c1cnn2-c1ncccc1Cl)C(=O)Nc1ccc(C)cn1 .
Response given: 37

Challenge: Record: CC(C)OC[C@H](Oc1ncnc2c1cnn2-c1ccccc1Cl)C(=O)Nc1ccc(Cl)cn1
Response given: 19

Challenge: Record: O=C(Nc1ccc(Cl)cn1)[C@H](CN1CC(O)C1)Oc1ncnc2c1cnn2-c1ccccc1Cl
Response given: 24

Challenge: Record: O=C(Nc1ccc(Cl)cn1)[C@H](CN1CC(O)C1)Oc1ncnc2c1cnn2-c1ncccc1Cl
Response given: 45

Challenge: Record: C[C@@H](CO)OC[C@H](Oc1ncnc2c1cnn2-c1ncccc1Cl)C(=O)Nc1ccc(C#N)cn1
Response given: 115

Challenge: Record: O=C(Nc1ccc(Cl)cn1)[C@H](COCCO)Oc1ncnc2c1cnn2-c1ccccc1Cl
Response given: 86

Challenge: Record: C[C@H](CO)OC[C@H](Oc1ncnc2c1cnn2-c1ncccc1Cl)C(=O)Nc1ccc(C#N)cn1
Response given: 106

Challenge: Record: N#Cc1ccc(NC(=O)[C@H](COCCO)Oc2ncnc3c2cnn3-c2ncccc2Cl)nc1
Response given: 115

Challenge: Record: Cc1ccc(NC(=O)[C@H](COC2CCC2)Oc2ncnc3c2cnn3-c2ncccc2Cl)nc1
Response given: 10

Challenge: Record: CC(C)OC[C@H](Oc1ncnc2c1cnn2-c1ncccc1Cl)C(=O)Nc1ccc(Cl)cn1
Response given: 14

Challenge: Record: C[C@@H](CO)OC[C@H](Oc1ncnc2c1cnn2-c1ncccc1Cl)C(=O)Nc1ccc(Cl)cn1
Response given: 12

###

- Experiment Summary: Clearance in rat
- Type: ADME, organism-based
- Setup Conditions: in vivo
Measurement Type: clearance (mL/min/kg)
Please state the figure in mL/min/kg; there is no need to write the unit.

Challenge: If you can, please state the reported clearance value of O=C(Nc1ccccn1)[C@H](CN1CC(O)C1)Oc1ncnc2c1cnn2-c1ccccc1Cl .
Response given: 170

Challenge: Record: Cc1cnc(NC(=O)[C@H](CN2CC(O)C2)Oc2ncnc3c2cnn3-c2c(Cl)cccc2Cl)cn1
Response given: 225

Challenge: Record: C[C@H](CO)OC[C@H](Oc1ncnc2c1cnn2-c1ncccc1Cl)C(=O)Nc1ccc(Cl)cn1
Response given: 50

Challenge: Record: N#Cc1ccc(NC(=O)[C@H](COCCO)Oc2ncnc3c2cnn3-c2ncccc2Cl)nc1
Response given: 13

Challenge: Record: O=C(Nc1ccccn1)[C@H](CN1CC(O)C1)Oc1ncnc2c1cnn2-c1c(F)cccc1Cl
Response given: 81

Challenge: Record: N#Cc1ccc(NC(=O)[C@H](CN2CC(O)C2)Oc2ncnc3c2cnn3-c2ccccc2Cl)nc1
Response given: 30

Challenge: Record: O=C(Nc1ccc(F)cn1)[C@H](COCCO)Oc1ncnc2c1cnn2-c1c(Cl)cccc1Cl
Response given: 15

Challenge: Record: Cc1ccc(NC(=O)[C@H](CCO)Oc2ncnc3c2cnn3-c2ncccc2Cl)nc1
Response given: 11

Challenge: Record: CC(C)OC[C@H](Oc1ncnc2c1cnn2-c1ncccc1Cl)C(=O)Nc1ccc(C#N)cn1
Response given: 21

###

- Target Desc: Voltage-gated inwardly rectifying potassium channel KCNH2 (Homo sapiens, UniProt Q12809)
- Sequence (Q12809 whole entry): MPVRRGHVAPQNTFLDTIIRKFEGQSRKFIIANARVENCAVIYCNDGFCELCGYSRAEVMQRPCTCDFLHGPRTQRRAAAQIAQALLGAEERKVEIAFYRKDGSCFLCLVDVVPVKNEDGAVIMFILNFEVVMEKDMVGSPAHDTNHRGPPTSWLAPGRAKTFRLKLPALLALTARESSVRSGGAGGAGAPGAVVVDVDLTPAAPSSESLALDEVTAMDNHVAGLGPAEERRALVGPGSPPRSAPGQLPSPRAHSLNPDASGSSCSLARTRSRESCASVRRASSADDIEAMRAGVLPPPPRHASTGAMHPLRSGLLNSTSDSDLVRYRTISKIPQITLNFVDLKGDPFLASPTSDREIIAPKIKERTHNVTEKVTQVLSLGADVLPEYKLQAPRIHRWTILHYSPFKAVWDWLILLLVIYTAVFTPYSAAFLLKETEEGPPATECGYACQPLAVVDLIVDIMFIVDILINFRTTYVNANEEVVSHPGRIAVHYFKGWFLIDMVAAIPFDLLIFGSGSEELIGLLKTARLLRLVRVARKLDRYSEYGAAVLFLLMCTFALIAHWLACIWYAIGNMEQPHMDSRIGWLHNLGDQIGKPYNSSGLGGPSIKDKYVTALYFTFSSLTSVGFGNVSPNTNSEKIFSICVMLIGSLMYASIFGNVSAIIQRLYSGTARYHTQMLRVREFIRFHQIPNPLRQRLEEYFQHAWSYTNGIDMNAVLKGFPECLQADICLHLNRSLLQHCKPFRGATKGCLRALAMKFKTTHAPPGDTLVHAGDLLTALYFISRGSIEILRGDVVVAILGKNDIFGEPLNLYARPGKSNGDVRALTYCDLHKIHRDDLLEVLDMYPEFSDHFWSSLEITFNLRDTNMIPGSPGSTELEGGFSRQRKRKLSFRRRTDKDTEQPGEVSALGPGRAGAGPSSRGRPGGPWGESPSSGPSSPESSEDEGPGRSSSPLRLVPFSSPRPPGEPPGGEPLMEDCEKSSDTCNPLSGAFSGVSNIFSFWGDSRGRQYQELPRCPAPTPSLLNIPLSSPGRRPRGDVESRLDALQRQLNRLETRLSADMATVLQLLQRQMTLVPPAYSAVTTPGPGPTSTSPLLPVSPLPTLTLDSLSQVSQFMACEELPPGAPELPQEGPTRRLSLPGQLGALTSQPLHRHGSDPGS
Could you please mark yes (1) for values of IC50 below 20 µM and no (0) for values at or above it?

Challenge: Dear reviewer, please state whether Cc1cnc(NC(=O)[C@H](CN2CC(O)C2)Oc2ncnc3c2cnn3-c2c(Cl)cccc2Cl)cn1 has IC50 strictly beneath 20 µM.
Response given: no (0)

Challenge: Record: N#Cc1ccc(NC(=O)[C@H](CN2CC(O)C2)Oc2ncnc3c2cnn3-c2c(Cl)cccc2C#N)nc1
Response given: yes (1)

Challenge: Record: O=C(Nc1ccc(Cl)cn1)[C@H](CN1CC(O)C1)Oc1ncnc2c1cnn2-c1ncccc1Cl
Response given: no (0)

Challenge: Record: O=C(Nc1ccc(F)cn1)[C@H](CN1CC(O)C1)Oc1ncnc2c1cnn2-c1c(F)cccc1Cl
Response given: no (0)

Challenge: Record: O=C(Nc1ccc(Cl)cn1)[C@H](CN1CC(O)C1)Oc1ncnc2c1cnn2-c1ccccc1Cl
Response given: yes (1)

Challenge: Record: Cc1cnc(NC(=O)[C@H](CO[C@H](C)CO)Oc2ncnc3c2cnn3-c2c(Cl)cccc2C#N)cn1
Response given: no (0)

Challenge: Record: O=C(Nc1ccc(F)cn1)[C@H](CN1CC(O)C1)Oc1ncnc2c1cnn2-c1ncccc1Cl
Response given: no (0)

Challenge: Record: CC(C)OC[C@H](Oc1ncnc2c1cnn2-c1ccccc1Cl)C(=O)Nc1ccc(Cl)cn1
Response given: yes (1)

###

- Tested on: Hepatocyte
- Experiment Summary: Intrinsic clearance in rat hepatocytes measured per […] cells
- Assay type: ADME, cell-based
Measurement Type: CLint (µL/min/1e6 cells)
Please state the figure in µL/min/1e6 cells; there is no need to write the unit.

Challenge: Provide the documented CLint with Hepatocyte as the system for Cc1ccc(NC(=O)[C@H](COC2CCC2)Oc2ncnc3c2cnn3-c2ncccc2Cl)nc1
Response given: 130

Challenge: Record: Cc1ccc(NC(=O)[C@H](COC(C)C)Oc2ncnc3c2cnn3-c2ncccc2Cl)nc1
Response given: 66

Challenge: Record: CCOC[C@H](Oc1ncnc2c1cnn2-c1ncccc1Cl)C(=O)Nc1ccc(C)cn1
Response given: 12

###

Exercise: for every item that follows, state its recorded CL free.
- Organism: Canis familiaris
- Experiment Summary: Unbound clearance in dog
- Assay type: ADME, organism-based, Canis lupus familiaris
- Setup Conditions: in vivo
Please state the figure in mL/min/kg; there is no need to write the unit.

Challenge: If you can, please state the reported CL free value of Cc1cnc(NC(=O)[C@H](CO[C@H](C)CO)Oc2ncnc3c2cnn3-c2c(Cl)cccc2C#N)cn1 .
Response given: 49

Challenge: Record: Cc1cnc(NC(=O)[C@H](CN2CC(O)C2)Oc2ncnc3c2cnn3-c2c(Cl)cccc2Cl)cn1
Response given: 60

Challenge: Record: O=C(Nc1ccc(F)cn1)[C@H](CN1CC(O)C1)Oc1ncnc2c1cnn2-c1ccccc1Cl
Response given: 170

Challenge: Record: O=C(Nc1ccc(F)cn1)[C@H](CN1CC(O)C1)Oc1ncnc2c1cnn2-c1c(Cl)cccc1Cl
Response given: 210

###

- Target Desc: Voltage-gated inwardly rectifying potassium channel KCNH2 (Homo sapiens)
- Experiment Summary: Inhibition of human ERG by electrophysiological analysis
Exercise: for every item that follows, state its recorded pIC50.
Bear in mind: pIC50 is minus log10 of a mol/L concentration; give just that figure.

Challenge: If you can, please state the reported pIC50 value of O=C(Nc1ccc(Cl)cn1)[C@H](COCCO)Oc1ncnc2c1cnn2-c1ncccc1Cl .
Response given: 4.30

Challenge: Record: N#Cc1ccc(NC(=O)[C@H](CN2CC(O)C2)Oc2ncnc3c2cnn3-c2ccccc2Cl)nc1
Response given: 5.00

Challenge: Record: N#Cc1cccc(Cl)c1-n1ncc2c(O[C@@H](COCCO)C(=O)Nc3ccc(F)cn3)ncnc21
Response given: 4.20

Challenge: Record: O=C(Nc1ccc(F)cn1)[C@H](COCCO)Oc1ncnc2c1cnn2-c1ccccc1Cl
Response given: 4.40

Challenge: Record: O=C(Nc1ccc(F)cn1)[C@H](CN1CC(O)C1)Oc1ncnc2c1cnn2-c1ccccc1Cl
Response given: 4.44

Challenge: Record: O=C(Nc1ccc(F)cn1)[C@H](COCCO)Oc1ncnc2c1cnn2-c1c(F)cccc1Cl
Response given: 4.50

meta.source: ChEMBL document CHEMBL3217445
